// inhibition lookup, one value per entry
# Tested on: Apis mellifera
# assayNotes: Inhibition of bee venom group 3 sPLA2 at 10 uM
Just the number in %, nothing appended.

{"compound": "O=C1OC(O)C(c2cccc(-c3ccc(Oc4ccccc4)cc3)c2)=C1c1cccc(-c2ccc(Oc3ccccc3)cc2)c1 (stereo not given)", "measuredOn": "Apis mellifera", "outcomeMeasure": "inhibition", "measurement": 6}
{"compound": "CCCCc1ccc(C2=C(c3ccc(-c4ccc(CCCC)cc4)cc3)C(O)OC2=O)cc1 (stereo not given)", "measuredOn": "Apis mellifera", "outcomeMeasure": "inhibition", "measurement": 2.8}
{"compound": "O=C1OC(O)C(c2ccc(-c3ccc(-c4ccccc4)cc3)cc2)=C1Br (stereo not given)", "measuredOn": "Apis mellifera", "outcomeMeasure": "inhibition", "measurement": 0}
{"compound": "O=C1OC(O)C(c2cccc(-c3ccc4ccccc4c3)c2)=C1Br (stereo not given)", "measuredOn": "Apis mellifera", "outcomeMeasure": "inhibition", "measurement": 0}

Need inhibition, item CCCCc1ccc(-c2ccc(C3=C(Br)C(=O)OC3O)cc2)cc1 (stereo not given) 3.5

Now consider O=C1OC(O)C(c2cccc(-c3ccc4ccccc4c3)c2)=C1c1ccc2ccccc2c1 (stereo not given) and answer again. 2.8

What do we get for O=C1OC(O)C(c2cccc(-c3ccc(Oc4ccccc4)cc3)c2)=C1Br (stereo not given) ? 5.3

* * *

# Tested on: Naja naja
# assayNotes: Inhibition of Naja naja venom group 1A sPLA2 at 10 uM
outcomeMeasure: inhibition (%)
Field: numeric (%). Do not append units.

Below: 8 molecules and their reported inhibition.
{"molecule": "O=C1OC(O)C(c2ccc(-c3ccc(-c4ccccc4)cc3)cc2)=C1Br (stereo not given)", "outcomeMeasure": "inhibition", "unitOfMeasure": "%", "measurement": 0}
{"molecule": "O=C1OC(O)C(c2cccc(-c3csc4ccccc34)c2)=C1c1cccc(-c2csc3ccccc23)c1 (stereo not given)", "outcomeMeasure": "inhibition", "unitOfMeasure": "%", "measurement": 3.6}
{"molecule": "CCc1c(CC(N)=O)c2cc(OCCCP(=O)(O)O)ccc2n1Cc1ccccc1", "outcomeMeasure": "inhibition", "unitOfMeasure": "%", "measurement": 7.9}
{"molecule": "O=C1OC(O)C(c2cccc(-c3ccc(Oc4ccccc4)cc3)c2)=C1Br (stereo not given)", "outcomeMeasure": "inhibition", "unitOfMeasure": "%", "measurement": 5.8}
{"molecule": "O=C1OC(O)C(c2cccc(-c3ccc(Oc4ccccc4)cc3)c2)=C1c1cccc(-c2ccc(Oc3ccccc3)cc2)c1 (stereo not given)", "outcomeMeasure": "inhibition", "unitOfMeasure": "%", "measurement": 16.6}
{"molecule": "O=C1OC(O)C(c2cccc(-c3ccc4ccccc4c3)c2)=C1Br (stereo not given)", "outcomeMeasure": "inhibition", "unitOfMeasure": "%", "measurement": 0}
{"molecule": "CCCCc1ccc(C2=C(c3ccc(-c4ccc(CCCC)cc4)cc3)C(O)OC2=O)cc1 (stereo not given)", "outcomeMeasure": "inhibition", "unitOfMeasure": "%", "measurement": 2.6}
{"molecule": "O=C1OC(O)C(c2cccc(-c3ccc4ccccc4c3)c2)=C1c1ccc2ccccc2c1 (stereo not given)", "outcomeMeasure": "inhibition", "unitOfMeasure": "%", "measurement": 2}

# query: inhibition of entry O=C1OC(O)C(c2cccc(-c3csc4ccccc34)c2)=C1Br (stereo not given) 11.7

Next record, please: CCCCc1ccc(-c2ccc(C3=C(Br)C(=O)OC3O)cc2)cc1 (stereo not given) 0
